Just for reference, paper PMC10397247 is where these values come from.

Target: T1, 4H570-bN
T1 chain: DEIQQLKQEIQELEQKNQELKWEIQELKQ
Experiment: two-hybrid library CCNG1;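 further: natural log of median RNA to DNA barcode read ratio; higher means stronger binding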
measure: interaction score

> print(dat)
                                     binder            measure  readoutnumber
1  DKNQQLEQEIQELKQKIQELEWENQELKQ [4H3172-bN]  interaction score         -0.602
2  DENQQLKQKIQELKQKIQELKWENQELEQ [4H1899-bN]  interaction score             -1
3  DKNQQLKQEIQELEQENQELKWKIQELEQ [4H3613-bN]  interaction score         -0.737

P. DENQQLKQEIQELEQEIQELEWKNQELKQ [4H1544-bN]
Q. DKNQQLEQEIQELEQKNQELKWEIQELEQ [4H3129-bN]
Inquiry: Input pair: P , Q . Output: entry with lower interaction score. Let me know the label of the one you choose.
Reply text: Q
(Q: -0.835, P: -0.108)

1. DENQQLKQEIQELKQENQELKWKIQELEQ [4H1629-bN]
2. DEIQQLKQEIQELEQKNQELKWEIQELKQ [4H570-bN]
Inquiry: Input pair: 1 , 2 . Output: entry with lower interaction score. Let me know the label of the one you choose.
Reply text: 1

1. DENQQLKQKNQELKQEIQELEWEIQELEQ [4H1985-bN]
2. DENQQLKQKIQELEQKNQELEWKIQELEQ [4H1845-bN]
Inquiry: Input pair: 1 , 2 . Output: entry with lower interaction score. Let me know the label of the one you choose.
Reply text: 2

I. DKNQQLEQKIQELKQENQELEWKIQELKQ [4H3414-bN]
II. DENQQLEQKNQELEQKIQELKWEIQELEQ [4H1449-bN]
III. DKNQQLKQKNQELEQEIQELEWKIQELKQ [4H3974-bN]
IV. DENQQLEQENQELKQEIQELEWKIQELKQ [4H1222-bN]
Inquiry: Arrange these 4 binders in increasing order of interaction score. Please list the labels according to the requested order.
Reply text: III, II, I, IV
(III: -1.69, II: -0.581, I: -0.223, IV: -0.0662)
